- Test system: STS26T
- assay_overview: % inhibition of CellTiter-Glo viability at highest tested concentration (72 h), relative to DMSO and benzethonium chloride controls; higher = more inhibition
quantity: % inhibition (%)
Give the number; % is assumed, so skip it.

Please review the following examples before continuing.
{"columns": ["compound", "scale_unit", "% inhibition"],
 "data": [
  ["CCCCC(=O)OCC(=O)[C@]1(O)Cc2c(O)c3c(c(O)c2[C@@H](O[C@H]2C[C@H](NC(=O)C(F)(F)F)[C@H](O)[C@H](C)O2)C1)C(=O)c1c(OC)cccc1C3=O [Valrubicin] (max concentration tested 5000 nM)", "%", 97.7],
  ["Cn1cc(C[C@@H](N)C(=O)O)c2ccccc21 [1-methyl-D-tryptophan aq] (max concentration tested 5000 nM)", "%", -5.75],
  ["Cn1c(=O)c(F)c(Nc2ccc(I)cc2F)c2c(=O)n(C[C@@H](O)CO)cnc21 [TAK-733] (max concentration tested 1000 nM)", "%", 40.6],
  ["Cn1cnc2c(F)c(Nc3ccc(Br)cc3F)c(C(=O)NOCCO)cc21 [MEK-162] (max concentration tested 1000 nM)", "%", 24.5],
  ["NC(=O)Nc1cc(-c2cccc(F)c2)sc1C(=O)N[C@H]1CCCNC1 [AZD7762] (max concentration tested 1000 nM)", "%", 90.7]
]}

Quick one: give measured % inhibition for CC(=O)O[C@H]1C(=O)[C@@]2(C)[C@H]([C@H](OC(=O)c3ccccc3)[C@]3(O)C[C@H](OC(=O)[C@H](O)[C@@H](NC(=O)c4ccccc4)c4ccccc4)C(C)=C1C3(C)C)[C@]1(OC(C)=O)CO[C@@H]1C[C@@H]2O [Paclitaxel] (max concentration tested 1000 nM)
99.6

Quick one: give measured % inhibition for COC(=O)c1ccc2c(c1)NC(=O)/C2=C(\Nc1ccc(N(C)C(=O)CN2CCN(C)CC2)cc1)c1ccccc1 [Nintedanib] (max concentration tested 10000 nM)
2.06

Quick one: give measured % inhibition for O=P1(NCCCl)OCCCN1CCCl (stereo unspecified) [Ifosfamide] (max concentration tested 10000 nM)
-1.13

Quick one: give measured % inhibition for COc1cc2nccc(Oc3ccc(NC(=O)Nc4cc(C)on4)c(Cl)c3)c2cc1OC [Tivozanib] (max concentration tested 10000 nM)
45.5

Quick one: give measured % inhibition for COc1cc2c(cc1-c1c(C)noc1C)ncc1[nH]c(=O)n([C@H](C)c3ccccn3)c12 [I-BET151] (max concentration tested 10000 nM)
39.3

Quick one: give measured % inhibition for O=C(c1ccc(C(=O)N2CCC(N3CCCC3)CC2)c(Nc2ccccc2)c1)N1CCC(N2CCCC2)CC1 [UNC1215] (max concentration tested 30000 nM)
3.37
